meta.source: patent US9493466B2

Tested on: RPMI
TEST_NAME: Cell proliferation and viability assay for MM lines
Type: cell-based
CONDITION_DESCRIPTION: 120 h, 5 days, 7AAD FACS, read-out: IC50, Proliferation
EXPERIMENTAL_ENDPOINT: pIC50
When answering, recall that pIC50 equals minus log10 of the concentration in mol/L, and write that number alone.

INPUT: Give its pIC50 value. Item: CCN1C(=O)CNc2ncc(-c3ccc(-c4nc[nH]n4)nc3C)nc21 [Compound 2]
OUTPUT: 6.82

---

System: CAG
TEST_NAME: Cell proliferation and viability assay for MM lines
Format: cell-based
CONDITION_DESCRIPTION: 5 days, 7AAD FACS, read-out: IC50, Proliferation
EXPERIMENTAL_ENDPOINT: pIC50
When answering, recall that pIC50 equals minus log10 of the concentration in mol/L, and write that number alone.

INPUT: Give its pIC50 value. Item: CO[C@H]1CC[C@H](N2C(=O)CNc3ncc(-c4ccc(C(C)(C)O)nc4)nc32)CC1
OUTPUT: 6.10

---

Test system: JVM-13
TEST_NAME: Growth inhibition assay for NHL lines
Format: cell-based
CONDITION_DESCRIPTION: JVM-13, NHL MCL, 96 hours, n ≧ 3
EXPERIMENTAL_ENDPOINT: pIC50
When answering, recall that pIC50 equals minus log10 of the concentration in mol/L, and write that number alone.

INPUT: Request - read-out pIC50 | tested on JVM-13 | compound CO[C@H]1CC[C@H](N2C(=O)CNc3ncc(-c4ccc(C(C)(C)O)nc4)nc32)CC1
OUTPUT: 5.46

---

Test system: KASUMI-1
TEST_NAME: Growth inhibition assay for NHL lines
Type: cell-based
CONDITION_DESCRIPTION: KASUMI-1, Leukemia M-AML, 96 hours, n ≧ 3
EXPERIMENTAL_ENDPOINT: IC50

INPUT: Give its IC50 value. Item: CO[C@H]1CC[C@H](N2C(=O)CNc3ncc(-c4ccc(C(C)(C)O)nc4)nc32)CC1
OUTPUT: 120 nM

---

Tested on: RPMI
TEST_NAME: Cell proliferation and viability assay for MM lines
Format: cell-based
CONDITION_DESCRIPTION: 5 days, 7AAD FACS, read-out: IC50, Proliferation
EXPERIMENTAL_ENDPOINT: IC50 (nM)
Supply the numeric figure in nM, leaving out any unit text.

INPUT: Give its IC50 value. Item: CO[C@H]1CC[C@H](N2C(=O)CNc3ncc(-c4ccc(C(C)(C)O)nc4)nc32)CC1
OUTPUT: 170

---

Test system: U-2940
TEST_NAME: Growth inhibition assay for NHL lines
Type: cell-based
CONDITION_DESCRIPTION: U-2940, NHL DLBCL, 96 hours, n ≧ 3
EXPERIMENTAL_ENDPOINT: IC50 (nM)
Supply the numeric figure in nM, leaving out any unit text.

INPUT: Give its IC50 value. Item: CO[C@H]1CC[C@H](N2C(=O)CNc3ncc(-c4ccc(C(C)(C)O)nc4)nc32)CC1
OUTPUT: 180

---

System: OCI-LY-19
TEST_NAME: Growth inhibition assay for NHL lines
Format: cell-based
CONDITION_DESCRIPTION: OCI-LY-19, NHL DLBCL, 96 hours, n ≧ 3
EXPERIMENTAL_ENDPOINT: IC50 (nM)
Supply the numeric figure in nM, leaving out any unit text.

INPUT: Give its IC50 value. Item: CO[C@H]1CC[C@H](N2C(=O)CNc3ncc(-c4ccc(C(C)(C)O)nc4)nc32)CC1
OUTPUT: 350

---

System: OCI-LY-3
TEST_NAME: Growth inhibition assay for NHL lines
Assay type: cell-based
CONDITION_DESCRIPTION: OCI-LY-3, NHL DLBCL, 96 hours, n ≧ 3
EXPERIMENTAL_ENDPOINT: pIC50
When answering, recall that pIC50 equals minus log10 of the concentration in mol/L, and write that number alone.

INPUT: Give its pIC50 value. Item: CO[C@H]1CC[C@H](N2C(=O)CNc3ncc(-c4ccc(C(C)(C)O)nc4)nc32)CC1 [Compound 1]
OUTPUT: 6.54

---

Test system: NCI-H549
TEST_NAME: Cell viability assay for NSCLC lines
Type: cell-based, human
CONDITION_DESCRIPTION: NCI-H549, 3 days
EXPERIMENTAL_ENDPOINT: pIC50
When answering, recall that pIC50 equals minus log10 of the concentration in mol/L, and write that number alone.

INPUT: Give its pIC50 value. Item: CO[C@H]1CC[C@H](N2C(=O)CNc3ncc(-c4ccc(C(C)(C)O)nc4)nc32)CC1 [Compound 1]
OUTPUT: 6.11

---

Test system: SW1573
TEST_NAME: Cell viability assay for NSCLC lines
Format: cell-based, human
CONDITION_DESCRIPTION: SW1573, 3 days
EXPERIMENTAL_ENDPOINT: IC50 (µM)
Supply the numeric figure in µM, leaving out any unit text.

INPUT: Give its IC50 value. Item: CO[C@H]1CC[C@H](N2C(=O)CNc3ncc(-c4ccc(C(C)(C)O)nc4)nc32)CC1
OUTPUT: 7.21

---

Tested on: NCI-H2030
TEST_NAME: Cell viability assay for NSCLC lines
Assay type: cell-based, human
CONDITION_DESCRIPTION: NCI-H2030, 3 days
EXPERIMENTAL_ENDPOINT: IC50 (µM)
Supply the numeric figure in µM, leaving out any unit text.

INPUT: Give its IC50 value. Item: CO[C@H]1CC[C@H](N2C(=O)CNc3ncc(-c4ccc(C(C)(C)O)nc4)nc32)CC1 [Compound 1]
OUTPUT: 2.23

---

System: DF15
TEST_NAME: Cell proliferation and viability assay for MM lines
Assay type: cell-based
CONDITION_DESCRIPTION: 120 h; DF15, 5 days, 7AAD FACS; read-out: IC50, Viability
EXPERIMENTAL_ENDPOINT: IC50 (nM)
Supply the numeric figure in nM, leaving out any unit text.

INPUT: Give its IC50 value. Item: CCN1C(=O)CNc2ncc(-c3ccc(-c4nc[nH]n4)nc3C)nc21
OUTPUT: 570

---

Test system: KMS34
TEST_NAME: Cell proliferation and viability assay for MM lines
Type: cell-based
CONDITION_DESCRIPTION: KMS-34, 120 h; KMS34, 5 days, 7AAD FACS; read-out: IC50, Viability
Method: Cell Proliferation and Viability Assay for MM Lines. Prior to use, cells were washed and maintained in medium for 5 days. Cells were seeded out at a density of 0.3×10^6 cells/mL in a 12-well plate and treated with Compound 1 or Compound 2 for 5 days. 7AAD detection fluorescence-activated cell sorting (FACS) flow cytometry was used in the analysis.
EXPERIMENTAL_ENDPOINT: IC50 (nM)
Supply the numeric figure in nM, leaving out any unit text.

INPUT: Give its IC50 value. Item: CCN1C(=O)CNc2ncc(-c3ccc(-c4nc[nH]n4)nc3C)nc21 [Compound 2]
OUTPUT: 120

---

System: NCI-H1944
TEST_NAME: Cell viability assay for NSCLC lines
Assay type: cell-based, human
CONDITION_DESCRIPTION: NCI-H1944, 3 days
Description: Cell Viability Assay for NSCLC Lines. Cell viability was assessed using the Cell Titer-Glo Luminescent Cell Viability from Promega. The assay is a homogenous method of determining the number of viable cells in culture based on quantitation of the adenosine triphosphate (ATP) present, an indicator of metabolically active cells. […] The luminescence was measured on the VICTOR X2 multilabel plate reader. […]
EXPERIMENTAL_ENDPOINT: IC50 (µM)
Supply the numeric figure in µM, leaving out any unit text.

INPUT: Give its IC50 value. Item: CO[C@H]1CC[C@H](N2C(=O)CNc3ncc(-c4ccc(C(C)(C)O)nc4)nc32)CC1
OUTPUT: 0.55

---

Tested on: SU-DHL-1
TEST_NAME: Growth inhibition assay for NHL lines
Type: cell-based
CONDITION_DESCRIPTION: SU-DHL-1, ALCL T-cell, 96 hours, n ≧ 3
EXPERIMENTAL_ENDPOINT: pIC50
When answering, recall that pIC50 equals minus log10 of the concentration in mol/L, and write that number alone.

INPUT: Request - read-out pIC50 | tested on SU-DHL-1 | compound CO[C@H]1CC[C@H](N2C(=O)CNc3ncc(-c4ccc(C(C)(C)O)nc4)nc32)CC1
OUTPUT: 6.41

---

Tested on: RPMI
TEST_NAME: Cell proliferation and viability assay for MM lines
Type: cell-based
CONDITION_DESCRIPTION: 5 days, 7AAD FACS, read-out: IC50, Viability
EXPERIMENTAL_ENDPOINT: pIC50
When answering, recall that pIC50 equals minus log10 of the concentration in mol/L, and write that number alone.

INPUT: Give its pIC50 value. Item: CO[C@H]1CC[C@H](N2C(=O)CNc3ncc(-c4ccc(C(C)(C)O)nc4)nc32)CC1
OUTPUT: 5.96
